B1: MCOLN1 (parent)
chain: EEEDLRRRLKYFFMSPCDKFRAKG

- Variants of: B1
- METHOD_DESCRIPTION: protein stability index of a GFP-peptide fusion (GPS, HEK-293T) (PSI 1-6); higher = more stable;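 also: lentivirally expressed fusions sorted by FACS into six bins by GFP to DsRed ratio, PSI derived from sequencing read proportions per bin multiplied by bin number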
- CONDITION_DESCRIPTION: c terminus: a fixed tail appended
Note to self: values exactly at 2 are Y. So protein stability index at or above 2 is Y, below is N.

> print(dat)
    mutant.name  class.assignment
 1         D18W                 Y
 2          L9S                 Y
 3         G24Q                 Y
 4         R21W                 N
 5         G24S                 Y
 6          R8Y                 N
 7         F12H                 Y
 8          L9E                 Y
 9         P16E                 N
10          L9M                 Y
11         F20S                 Y
